Test: Tissue distribution of SHR9146 in mice after oral gavage of 40 mg/kg
Type: in vivo, ICR mice
Details: female, ICR, mouse, stomach, po, 40 mg/kg, female, 1 h, 40 mg/kg oral gavage, Mean (n=3); read-out: SHR9146 concentration in Stomach
Measurement Label: concentration at 1 h (ng/g)
One number for each entry, in ng/g.

The value of concentration at 1 h measured for the compound `OCCn1cc(-c2ccc(N3CCC([C@H]4c5c(F)cccc5-c5cncn54)CC3)cc2)cn1` turned out to be 27800

====

Experiment: Tissue distribution of SHR9146 in mice after oral gavage of 40 mg/kg
Assay type: in vivo, ICR mice
Details: female, ICR, mouse, skeletal muscle, po, 40 mg/kg, female, 1 h, 40 mg/kg oral gavage, individual mice; read-out: SHR9146 concentration in Skeletal muscle
Measurement Label: concentration at 1 h (ng/g)
Give bare numbers, in ng/g.

The value of concentration at 1 h measured for the compound `OCCn1cc(-c2ccc(N3CCC([C@H]4c5c(F)cccc5-c5cncn54)CC3)cc2)cn1` turned out to be 6440

====

Assay: Plasma pharmacokinetics of SHR9146 in mice (LC-MS/MS, non-compartmental analysis)
Type: in vivo, ICR mice
Settings: both sexes, ICR, mouse, plasma, oral, 80 mg/kg, 80 mg/kg i.g. single; 0.5 h; read-out: plasma drug concentration, individual mice #1-#6
Measurement Label: concentration at 0.5 h (ng/mL)
Give bare numbers, in ng/mL.

The value of concentration at 0.5 h measured for the compound `OCCn1cc(-c2ccc(N3CCC([C@H]4c5c(F)cccc5-c5cncn54)CC3)cc2)cn1` turned out to be 9320

====

Assay: Plasma pharmacokinetics of SHR9146 in mice (LC-MS/MS, non-compartmental analysis)
Type: in vivo, ICR mice
Settings: male, ICR, mouse, plasma, po, 80 mg/kg, 80 mg/kg i.g. single dose; male mice; plasma; read-out: Cmax
Measurement Label: Cmax
Answer as a quantity: numeral, then unit.

The value of Cmax measured for the compound OCCn1cc(-c2ccc(N3CCC([C@H]4c5c(F)cccc5-c5cncn54)CC3)cc2)cn1 [SHR9146] turned out to be 15500 ng/mL

====

Assay: Plasma pharmacokinetics of SHR9146 in mice (LC-MS/MS, non-compartmental analysis)
Type: in vivo, ICR mice
Details: male, ICR, mouse, plasma, po, 20 mg/kg, 20 mg/kg i.g. bid, 7 days (7th-day steady state); male mice
Measurement Label: AUC(0-inf) (µg·h/mL)
Give bare numbers, in µg·h/mL.

The value of AUC(0-inf) measured for the compound OCCn1cc(-c2ccc(N3CCC([C@H]4c5c(F)cccc5-c5cncn54)CC3)cc2)cn1 [SHR9146] turned out to be 24.4

====

Experiment: Tissue distribution of SHR9146 in mice after oral gavage of 40 mg/kg
Type: in vivo, ICR mice
Conditions: female, ICR, mouse, stomach, po, 40 mg/kg, female, 3 h, 40 mg/kg oral gavage, individual mice; read-out: SHR9146 concentration in Stomach
Measurement Label: concentration at 3 h (ng/g)
Give bare numbers, in ng/g.

The value of concentration at 3 h measured for the molecule `OCCn1cc(-c2ccc(N3CCC([C@H]4c5c(F)cccc5-c5cncn54)CC3)cc2)cn1` turned out to be 29000
